The origin of these recorded values is PubChem BioAssay (EPA / NIEHS).

# System: Thyroperoxidase (TPO), gene 445522
# method description: CCTE_Simmons_GUA_TPO: CCTE's Guaiacol Assay for Thyroperoxidase (TPO) Inhibition, Simmons Lab (AID 2283750)
Results filed as inconclusive are left out. Active and inactive are the calls of the source. The calls were made as follows: active = hit-call score of the fitted dose curve at least 0.9, where 1 is the maximum; inconclusive = response in the unintended direction; inactive = score below 0.9.
Classes used: 1 for active, -1 for inactive

- smiles input: "COC(=O)NC(=S)Nc1ccccc1NC(=S)NC(=O)OC"
  class name: 1
- smiles input: "COP(=S)(OC)Oc1ccc([N+](=O)[O-])c(C)c1"
  class name: -1
- smiles input: "COC(=O)NS(=O)(=O)c1ccc(N)cc1"
  class name: 1
- smiles input: "CCOc1nc(F)cc2nc(S(=O)(=O)Nc3c(Cl)cccc3Cl)nn12"
  class name: 1
- smiles input: "COP(=S)(OC)SCn1nnc2ccccc2c1=O"
  class name: 1

====

AC50: recorded values
# study system: Estrogen receptor beta (Homo sapiens) (UniProt Q92731)
# Sequence (Q92731 whole entry, looked up): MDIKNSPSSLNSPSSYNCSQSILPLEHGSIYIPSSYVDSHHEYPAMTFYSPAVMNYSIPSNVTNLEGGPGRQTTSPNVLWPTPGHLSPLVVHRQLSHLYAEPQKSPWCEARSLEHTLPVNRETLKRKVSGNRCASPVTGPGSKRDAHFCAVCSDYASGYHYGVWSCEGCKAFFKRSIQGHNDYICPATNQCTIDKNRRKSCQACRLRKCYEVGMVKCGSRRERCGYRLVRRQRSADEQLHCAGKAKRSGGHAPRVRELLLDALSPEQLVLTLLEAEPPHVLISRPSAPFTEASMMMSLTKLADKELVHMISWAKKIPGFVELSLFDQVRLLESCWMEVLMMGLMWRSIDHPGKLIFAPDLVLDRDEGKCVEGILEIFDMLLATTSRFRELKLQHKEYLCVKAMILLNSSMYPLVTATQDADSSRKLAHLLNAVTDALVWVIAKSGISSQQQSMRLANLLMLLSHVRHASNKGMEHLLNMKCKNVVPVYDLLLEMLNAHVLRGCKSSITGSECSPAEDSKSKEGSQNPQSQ
# method description: ATG_hERb_XSP1: Attagene TRANS-FACTORIAL Multi-Species (XSP1) HepG2 Assay for human Estrogen Receptor (ESR2) (AID 2283788)
Results filed as inconclusive are left out. Active and inactive are the calls of the source. How the source made its calls: active means hit-call score of the fitted dose curve at least 0.9, where 1 is the maximum; inconclusive means response in the unintended direction; inactive means score below 0.9.

- molecule: "CC1(C)C(C=C(Cl)Cl)C1C(=O)OC(C#N)c1cccc(Oc2ccccc2)c1 (centres undefined)"
  study system: "Estrogen receptor beta (Homo sapiens) (UniProt Q92731)"
  AC50: "66.8 µM (active)"
- molecule: "CC1(C)CCC(=Cc2ccc(Cl)cc2)C1(O)Cn1cncn1 (centres undefined)"
  study system: "Estrogen receptor beta (Homo sapiens) (UniProt Q92731)"
  AC50: "46.6 µM (active)"
- molecule: "Cc1c(COC(=O)[C@@H]2[C@H](/C=C(\\Cl)C(F)(F)F)C2(C)C)cccc1-c1ccccc1"
  study system: "Estrogen receptor beta (Homo sapiens) (UniProt Q92731)"
  AC50: "100 µM (active)"
- molecule: "CCN(CC)C(=O)C(C)Oc1cccc2ccccc12 (centres undefined)"
  study system: "Estrogen receptor beta (Homo sapiens) (UniProt Q92731)"
  AC50: "100 µM (active)"

====

# method description: APR_HepG2_p53Act_72hr: Apredica 72-hour HepG2 Assay for p53 Activation (AID 2282923);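 also: average cellular p53 protein immunofluorescence intensity in HepG2 cells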
# condition notes: high-content imaging, actives raise or lower the signal
Activity calls are given as the source filed them. The calls were made as follows: active = hit-call score of the fitted dose curve at least 0.9, where 1 is the maximum; inactive = score below 0.9.
test readout: outcome

- compound: "Cn1c(-c2ccccc2)cc(-c2ccccc2)[n+]1C"
  result: "inactive"
- compound: "CC(C)NC(=O)N1CC(=O)N(c2cc(Cl)cc(Cl)c2)C1=O"
  result: "inactive"
- compound: "O=P(O)(O)CCCl"
  result: "inactive"
- compound: "Cc1cnc(C2=NC(C)(C(C)C)C(=O)N2)c(C(=O)O)c1 (centres undefined)"
  result: "inactive"
- compound: "CCSC(=O)N1CCCCCC1"
  result: "inactive"
- compound: "CCOP(=S)(OCC)Oc1nc(Cl)n(C(C)C)n1"
  result: "inactive"
- compound: "Cc1c(COC(=O)[C@@H]2[C@H](/C=C(\\Cl)C(F)(F)F)C2(C)C)cccc1-c1ccccc1"
  result: "inactive"
- compound: "COc1cc(OC)nc(NC(=O)NS(=O)(=O)c2ncccc2OCC(F)(F)F)n1"
  result: "inactive"
- compound: "CO/N=C(/C1=NOCCO1)c1ccccc1Oc1ncnc(Oc2ccccc2Cl)c1F"
  result: "inactive"
- compound: "CN/C(=N\\[N+](=O)[O-])NCc1cnc(Cl)s1"
  result: "inactive"
- compound: "Clc1cccc(C(Cl)(Cl)Cl)n1"
  result: "inactive"
- compound: "CC1(C)C(C(=O)OC(C#N)c2cccc(Oc3ccccc3)c2)C1(C)C (centres undefined)"
  result: "inactive"
- compound: "CC1(C)C(C=C(Cl)Cl)C1C(=O)OC(C#N)c1cccc(Oc2ccccc2)c1 (centres undefined)"
  result: "inactive"
- compound: "CC(C)N1C(=O)c2ccccc2NS1(=O)=O"
  result: "inactive"
- compound: "CCN(CC)c1nc(C)cc(OP(=S)(OC)OC)n1"
  result: "inactive"
- compound: "OC(c1ccc(Cl)cc1)(c1ccc(Cl)cc1)C(Cl)(Cl)Cl"
  result: "inactive"
- compound: "COP(=S)(OC)Oc1ccc([N+](=O)[O-])c(C)c1"
  result: "inactive"
- compound: "Nc1c(Cl)c(F)nc(OCC(=O)O)c1Cl"
  result: "inactive"
- compound: "COC(=O)c1c(C(F)F)nc(C(F)(F)F)c(C2=NCCS2)c1CC(C)C"
  result: "inactive"
- compound: "C=CCOC(=O)C(C)(C)OC(=O)c1cc(-n2c(=O)cc(C(F)(F)F)n(C)c2=O)ccc1Cl"
  result: "inactive"
- compound: "COC(=O)NS(=O)(=O)c1ccc(N)cc1"
  result: "inactive"
- compound: "Clc1nc(Cl)nc(Nc2ccccc2Cl)n1"
  result: "inactive"
- compound: "CCCCC(C#N)(Cn1cncn1)c1ccc(Cl)cc1 (centres undefined)"
  result: "inactive"
- compound: "CS(=O)(=O)c1ccc(C(=O)C2C(=O)CCCC2=O)c([N+](=O)[O-])c1"
  result: "inactive"
